Reference for the values: BindingDB's records for doi:10.7270/Q2MC8XP5

- tgt: Protein artemis (Homo sapiens)
- Sequence (Q96SD1 whole entry): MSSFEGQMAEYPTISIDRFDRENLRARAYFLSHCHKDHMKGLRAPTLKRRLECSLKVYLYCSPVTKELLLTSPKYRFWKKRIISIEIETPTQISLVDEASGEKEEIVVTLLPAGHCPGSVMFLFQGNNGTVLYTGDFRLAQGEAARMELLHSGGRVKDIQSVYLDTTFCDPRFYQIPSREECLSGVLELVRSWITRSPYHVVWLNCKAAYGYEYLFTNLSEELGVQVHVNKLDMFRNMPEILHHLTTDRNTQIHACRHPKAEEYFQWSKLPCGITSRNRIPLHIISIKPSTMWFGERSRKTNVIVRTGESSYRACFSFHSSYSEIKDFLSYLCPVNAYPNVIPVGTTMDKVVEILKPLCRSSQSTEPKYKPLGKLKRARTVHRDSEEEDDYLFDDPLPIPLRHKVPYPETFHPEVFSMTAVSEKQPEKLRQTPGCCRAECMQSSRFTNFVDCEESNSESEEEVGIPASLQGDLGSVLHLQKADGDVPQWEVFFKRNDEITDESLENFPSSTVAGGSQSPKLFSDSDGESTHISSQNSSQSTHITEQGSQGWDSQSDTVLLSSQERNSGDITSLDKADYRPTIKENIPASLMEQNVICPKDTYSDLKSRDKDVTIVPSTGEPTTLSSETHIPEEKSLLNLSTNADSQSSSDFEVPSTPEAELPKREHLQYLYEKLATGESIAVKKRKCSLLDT
- methodDescription: IC50 of Artemis nuclease activity blockers – biochemical, fluorescence intensity, dose response (AID 720701)
valueType: IC50 (µM)

| molecule | readingUnit | measuredValue |
| --- | --- | --- |
| C=CCN1C(=O)S/C(=C\c2ccc(N3CCOCC3)cc2C)C1=O | µM | 1.5 |
| CCCCc1ccc(/C=C2\C(=O)ON=C2c2ccccc2)s1 | µM | 16.2 |
| CCCCCCCCCC(N=O)c1ccccn1 (stereo unspecified) | µM | 11 |
| CCN(CC)c1ccc(CN=Nc2nc3ccccc3[nH]2)c(O)c1 | µM | 15.5 |
| O=C1C=Cc2ccccc2/C1=C/NC12CN3CCN(CN(C3)C1)C2 | µM | 3.64 |
| COc1ccc(O)c(CN=Nc2nc(Nc3ccccc3)nc(-n3nc(C)cc3C)n2)c1 | µM | 2.23 |
